assay: Arterial plasma ranolazine concentration in normal and heart failure dogs (HPLC-MS); format: in vivo, dog; conditions: normal dogs; dihydrochloride iv bolus 0.5 mg/kg then 1.0 mg/kg/hr for 40 min; mean±SEM
property label: Average ranolazine concentration during the final 10 minutes of treatment (µg/mL)
Quick note: give the figure in µg/mL, leave out the unit.

Problem: Which Average ranolazine concentration during the final 10 minutes of treatment is reported for this compound? COc1ccccc1OCC(O)CN1CCN(CC(=O)Nc2c(C)cccc2C)CC1 (racemic)
Solution: 0.3

###

assay: Ascending-dose SR bid study in healthy male volunteers, Day 5 pharmacokinetics of racemate and enantiomers; assay type: in vivo, human; conditions: male, human, plasma, oral; 2000 mg SR bid; read-out: C108h
property label: concentration at 108 h (ng/mL)
Numbers only here, please. The scale is ng/mL.

Problem: Endpoint output: concentration at 108 h of COc1ccccc1OCC(O)CN1CCN(CC(=O)Nc2c(C)cccc2C)CC1 (racemic) . Value?
Solution: 4400

###

Give measured concentration at 96 h for each item. Keep answers brief.
assay: Ascending-dose SR bid study in healthy male volunteers, Day 5 pharmacokinetics of racemate and enantiomers; type: in vivo, human; settings: male, human, plasma, oral; 1500 mg SR bid; read-out: C96h
Reply with just the number (in ng/mL).

Problem: # lookup: concentration at 96 h of COc1ccccc1OCC(O)CN1CCN(CC(=O)Nc2c(C)cccc2C)CC1 (racemic)
Solution: 3660

Problem: Can you look up the measured concentration at 96 h of COc1ccccc1OC[C@H](O)CN1CCN(CC(=O)Nc2c(C)cccc2C)CC1 [(+)R ranolazine] for me?
Solution: 2010

Problem: Fill blank: measured concentration at 96 h of the compound COc1ccccc1OC[C@@H](O)CN1CCN(CC(=O)Nc2c(C)cccc2C)CC1 [(−)S ranolazine] is ____.
Solution: 2400

###

For each of the compounds below, state its concentration at 108 h.
assay: Ascending-dose SR bid study in healthy male volunteers, Day 5 pharmacokinetics of racemate and enantiomers; type: in vivo, human; settings: male, human, plasma, oral; 1500 mg SR bid; read-out: C108h
The reply should contain only the number, in ng/mL.

Problem: What value of concentration at 108 h has been recorded for this entry: COc1ccccc1OCC(O)CN1CCN(CC(=O)Nc2c(C)cccc2C)CC1 (racemic) [ranolazine]
Solution: 2940

Problem: Field request: concentration at 108 h | item: COc1ccccc1OC[C@@H](O)CN1CCN(CC(=O)Nc2c(C)cccc2C)CC1 [(−)S ranolazine]
Solution: 1540

Problem: // lookup concentration at 108 h for COc1ccccc1OC[C@H](O)CN1CCN(CC(=O)Nc2c(C)cccc2C)CC1 [(+)R ranolazine]
Solution: 1450
